TEST SYSTEM: 5-HT3A receptors (Homo sapiens)
Construct: expressed in transfected cells; host or cells: HEK293
Sequence (P46098 24-478): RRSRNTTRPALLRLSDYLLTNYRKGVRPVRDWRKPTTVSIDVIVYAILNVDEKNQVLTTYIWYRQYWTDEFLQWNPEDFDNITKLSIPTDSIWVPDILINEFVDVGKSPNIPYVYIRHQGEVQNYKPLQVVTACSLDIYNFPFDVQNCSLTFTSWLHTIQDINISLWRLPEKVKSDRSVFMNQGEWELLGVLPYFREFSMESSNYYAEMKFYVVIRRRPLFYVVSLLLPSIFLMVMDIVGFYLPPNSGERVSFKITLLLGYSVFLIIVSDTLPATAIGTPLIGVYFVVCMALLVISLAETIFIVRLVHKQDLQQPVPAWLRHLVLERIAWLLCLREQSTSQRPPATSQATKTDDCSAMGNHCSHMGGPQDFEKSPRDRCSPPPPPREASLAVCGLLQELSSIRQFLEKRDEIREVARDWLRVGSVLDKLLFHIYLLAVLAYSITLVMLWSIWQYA
EXPERIMENTAL PROTOCOL: [3H]palonosetron saturation binding, HEK293 membranes
CONDITION DESCRIPTION: 24 h, 4 °C
MEASURED ATTRIBUTE: Kd (nM)
Give the value in nM but do not write nM after it.

Using the record for O=C1c2cccc3c2[C@H](CCC3)CN1[C@@H]1CN2CCC1CC2 [[^3H]palonosetron] , report its Kd.
0.34

---

TEST SYSTEM: 5-HT3A receptors (Homo sapiens)
MEASURED ATTRIBUTE: pKi
Remember, pKi is on a log scale: it is -log10 of the molar concentration.

Using the record for O=C1c2cccc3c2[C@H](CCC3)CN1[C@@H]1CN2CCC1CC2 [Palonosetron, palonosetron] , report its pKi.
9.52

The reported measurements were obtained from paper PMC3778450.
